Biological target: androgen receptor (Homo sapiens, UniProt P10275)
Sequence (P10275 whole entry, species assumed): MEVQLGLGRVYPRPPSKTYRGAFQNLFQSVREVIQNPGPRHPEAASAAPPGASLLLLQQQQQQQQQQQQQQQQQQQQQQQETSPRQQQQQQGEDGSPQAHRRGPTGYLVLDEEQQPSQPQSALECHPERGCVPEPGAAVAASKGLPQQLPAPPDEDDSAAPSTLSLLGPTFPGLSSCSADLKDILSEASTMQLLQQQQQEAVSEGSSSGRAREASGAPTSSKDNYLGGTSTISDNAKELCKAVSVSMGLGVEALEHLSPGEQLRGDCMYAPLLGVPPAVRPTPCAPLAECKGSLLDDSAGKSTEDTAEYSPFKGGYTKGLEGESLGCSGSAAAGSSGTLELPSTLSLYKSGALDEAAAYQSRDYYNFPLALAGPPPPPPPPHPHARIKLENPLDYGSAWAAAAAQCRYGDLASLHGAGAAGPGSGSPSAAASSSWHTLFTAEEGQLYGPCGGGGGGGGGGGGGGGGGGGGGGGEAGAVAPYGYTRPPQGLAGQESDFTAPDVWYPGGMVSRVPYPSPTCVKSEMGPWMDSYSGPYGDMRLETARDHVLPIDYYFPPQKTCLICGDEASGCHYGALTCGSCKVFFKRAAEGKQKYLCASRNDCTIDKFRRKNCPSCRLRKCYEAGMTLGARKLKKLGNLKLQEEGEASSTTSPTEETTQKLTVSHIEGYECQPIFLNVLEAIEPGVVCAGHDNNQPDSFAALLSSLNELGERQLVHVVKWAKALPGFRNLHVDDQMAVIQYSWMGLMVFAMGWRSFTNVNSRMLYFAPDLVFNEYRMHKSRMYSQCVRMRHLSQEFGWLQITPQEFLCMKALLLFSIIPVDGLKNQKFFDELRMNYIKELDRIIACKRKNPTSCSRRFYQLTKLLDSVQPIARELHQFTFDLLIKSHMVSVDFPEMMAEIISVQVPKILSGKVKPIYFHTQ
Assay: Androgen receptor binding test
Parameters: expressed in transfected cells
pIC50: −log10 of the molar value.
Tag: Fulfilled if measured pIC50 is not below 7, Not fulfilled if it is.

compound	assigned-label
C=C[C@@H]1CC2=CC(=O)CC[C@@H]2[C@H]2CC[C@@]3(C)[C@@H]([C@H]4C[C@H]4[C@@]34C=CC(=O)O4)[C@@H]21 [Example 16A]	Fulfilled
C[C@]12CC[C@H]3[C@@H](CCC4=C(Cl)C(=O)CC[C@@H]43)[C@@H]1[C@@H]1C[C@@H]1[C@@]21C=CC(=O)O1	Not fulfilled

Okay, now this compound:
Assess whether reported pIC50 for `CC[C@]12CC[C@H]3[C@@H]([C@@H]4C[C@@H]4C4=CC(=O)CC[C@@H]43)[C@@H]1[C@@H]1C[C@@H]1[C@@]21C=CC(=O)O1` sits at 7 or higher.
Not fulfilled
